Tested on: NCI-H23 lung
protocol.details: NCI-60 one-dose screen, 48 h (100 = growth as untreated, 0 = no growth, -100 = all killed)
condition.context: 10 µM unless noted
Experimental: Growth inhibition of the NCI-H23 human Non-Small Cell Lung tumor cell line is measured as a screen for anti-cancer activity. Cells are grown in 96 well plates and exposed to the test compound for 48 hours. Compounds are tested at a single concentration, which is 10^-5 M for most compounds. The reported endpoint is percent growth (GI% or GIPRCNT), where numbers from 0 - 100% represent growth inhibition, and numbers from -100% - 0 represent cell death. […]
This is part of a sample that, as a whole, favours compounds with a hit. Of some 83,000 tested, about 20% had one in any assay.
Classify as follows. Reported growth greater than or equal to 80%: criterion met. Reported growth below: criterion not met.

Solved entries (count: 4):
Cc1ccc(NC(=O)c2ccc(CN3CCN(C)CC3)cc2)cc1Oc1ccc(-c2[nH]nc3ncnc(N)c23)cc1 : criterion met
CS(=O)(=O)c1ccc(-c2nn(-c3ccccc3)cc2/C=N/NC(=O)c2nc(N)n[nH]2)cc1 : criterion met
Cc1ccc2sc3c(c2c1)OC(N)=C(C#N)C3c1ccc(Cl)cc1 (stereo not given) : criterion met
C=CC(=O)N1CCC=C(c2cc3c(N[C@H](C)c4ccccc4)ncnc3[nH]2)C1 : criterion met

## Task Confirm if growth reported for the compound Nc1nc(N)c2c(n1)NC(c1ccc(C(F)(F)F)cc1)CC(c1ccc(Nc3nc(NCCO)nc(N4CCOCC4)n3)cc1)=N2 (stereo not given) is 80% or above.
## Result criterion not met
